molecular target: human CYP4A11 (Homo sapiens, UniProt Q02928); construct: host or cells: Escherichia coli (membrane fraction); assay: CYP4A11 inhibition test (Test Example 1); assay type: biochemical; settings: Escherichia coli membrane fraction expressing human CYP4A11, 60 μM luciferine derivative, room temperature 60 minutes, luminescence
Sequence (Q02928 5-519): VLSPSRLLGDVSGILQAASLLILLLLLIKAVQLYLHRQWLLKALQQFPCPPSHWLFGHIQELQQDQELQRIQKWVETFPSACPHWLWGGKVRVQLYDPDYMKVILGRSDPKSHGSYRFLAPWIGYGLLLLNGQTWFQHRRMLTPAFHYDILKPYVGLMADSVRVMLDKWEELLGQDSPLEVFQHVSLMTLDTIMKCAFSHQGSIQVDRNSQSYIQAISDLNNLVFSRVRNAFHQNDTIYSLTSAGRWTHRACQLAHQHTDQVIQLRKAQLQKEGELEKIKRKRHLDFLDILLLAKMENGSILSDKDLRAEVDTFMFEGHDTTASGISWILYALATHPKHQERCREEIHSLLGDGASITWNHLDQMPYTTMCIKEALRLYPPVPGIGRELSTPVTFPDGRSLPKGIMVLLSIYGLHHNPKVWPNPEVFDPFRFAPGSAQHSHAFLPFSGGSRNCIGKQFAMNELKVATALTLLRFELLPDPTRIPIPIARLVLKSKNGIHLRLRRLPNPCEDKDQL
Measurement Name: IC50 (nM)

Compound	Measurement Name	Readout Number
CS(=O)(=O)c1cccc(COc2ccc(-c3[nH]ncc3C#N)nc2)c1 [Example 48-2]	IC50	770
O=S1(=O)CCC(CCOc2ccc(-c3cn[nH]c3)nc2)CC1 [Example 43-5]	IC50	290
O=C(CC1CCOCC1)NCCC(=O)N1CCC[C@@H](COc2ccc(-c3ccn[nH]3)nc2)C1 [Example 4-6]	IC50	340
O=C(NCCC(=O)N1CCC[C@@H](COc2ccc(-c3ccn[nH]3)nc2)C1)C1CCOCC1 [Example 4-5]	IC50	370
CC(C)OC(=O)NCCS(=O)(=O)N1CCC[C@@H](COc2ccc(-c3ccn[nH]3)nc2)C1 [Example 1-23]	IC50	26

a. CN(C)S(=O)(=O)N1CC(COc2ccc(-c3ccn[nH]3)nc2)C1 [Example 1-25]
b. O=S(=O)(N1CCCCC1)N1CCC[C@@H](COc2ccc(-c3ccn[nH]3)nc2)C1 [Example 11-1]
# returns the entry with the larger IC50; inputs a and b Answer format: the label of the selected item. a

a. Fc1cc(COc2ccc(-c3ccn[nH]3)nc2)cc(F)c1F [54-13]
b. CN(C)S(=O)(=O)c1cc(COc2ccc(-c3ccn[nH]3)nc2)ccc1Cl [Example 18-2]
// compare: a vs b , metric IC50, want the smaller Answer format: the label of the selected item. b
